Tested on: IL-6-GFP PC-9
Assay: cell viability (CCK-8 OD) relative to DMSO control (fraction of control); higher = more viable cells
Conditions: compound concentration: 10 uM; treatment time: 48 h
A collection of compounds and their measured cell viability
Respond with the number and no other words.

Answered cases to consult:
[
  {
    "compound": "CCCC(=O)OC1(C(=O)CCl)C(C)CC2C3CCC4=CC(=O)C=CC4(C)C3(F)C(=O)CC21C (stereo not given) [clobetasone butyrate]",
    "tested-on": "IL-6-GFP PC-9",
    "cell viability": 0.99
  },
  {
    "compound": "Cc1nnc(C(C)C)n1C1CC2CCC(C1)N2CCC(NC(=O)C1CCC(F)(F)CC1)c1ccccc1 (stereo not given)",
    "tested-on": "IL-6-GFP PC-9",
    "cell viability": 0.945
  },
  {
    "compound": "CC(C(=O)O)c1ccc2c(c1)[nH]c1ccc(Cl)cc12 (stereo not given)",
    "tested-on": "IL-6-GFP PC-9",
    "cell viability": 0.265
  },
  {
    "compound": "CN(C)C/C=C/C(=O)Nc1cc2c(Nc3ccc(F)c(Cl)c3)ncnc2cc1OC1CCOC1 (stereo not given)",
    "tested-on": "IL-6-GFP PC-9",
    "cell viability": 0.294
  }
]

Q: Report cell viability under test system IL-6-GFP PC-9 for CN(C)c1cc(CNCC(C)(C)C)c(O)c2c1CC1CC3C(N(C)C)C(O)=C(C(N)=O)C(=O)C3(O)C(O)=C1C2=O.Cc1ccc(S(=O)(=O)O)cc1 (stereo not given) [Omadacycline tosylate] .
Ans: 1.3

Q: Report cell viability under test system IL-6-GFP PC-9 for COc1cc(C(=O)NS(=O)(=O)c2ccccc2C)ccc1Cc1cn(C)c2ccc(NC(=O)OC3CCCC3)cc12 .
Ans: 0.967

Q: Report cell viability under test system IL-6-GFP PC-9 for CC(Oc1cc(-c2cnn(C3CCNCC3)c2)cnc1N)c1c(Cl)ccc(F)c1Cl [(S)-crizotinib] .
Ans: 0.756

Q: Report cell viability under test system IL-6-GFP PC-9 for CNC(=O)c1ccc(N2C(=S)N(c3cnc(C#N)c(C(F)(F)F)c3)C(=O)C23CCC3)cc1F .
Ans: 1.02

Q: Report cell viability under test system IL-6-GFP PC-9 for Nc1ccn(C2OC(CO)C(O)C2(F)F)c(=O)n1 (stereo not given) .
Ans: 0.559

Q: Report cell viability under test system IL-6-GFP PC-9 for O=C(/C=C/c1ccc(O)c(O)c1)OC(Cc1ccc(O)c(O)c1)C(=O)O (stereo not given) .
Ans: 1.14

###

Tested on: IL-6-GFP PC-9
Test: cell viability (CCK-8 OD) relative to DMSO control (fraction of control); higher = more viable cells
Settings: compound concentration: 10 uM; treatment time: 48 h
property-label: cell viability
Respond with the number and no other words.

[
  {
    "compound": "CN1CCC(NC(=O)Nc2ccc(C#N)cc2)CC1c1nc2ccccc2[nH]1 (stereo unspecified)",
    "cell viability": 1.21
  }
]

Q: Return cell viability for the following compound: O=C(Oc1ccccc1C(=O)O)c1ccccc1O [Sasapyrine]
Ans: 1.25

Q: Return cell viability for the following compound: O=C(O)Cc1ccccc1Nc1c(Cl)cccc1Cl.OCCN1CCCC1 [Diclofenac Epolamine]
Ans: 1.06

Q: Return cell viability for the following compound: O=c1[nH]c(=O)n(C2CCCO2)cc1F (stereo unspecified)
Ans: 1.01

Q: Return cell viability for the following compound: NC(=O)c1cccc2cn(-c3ccc(C4CCCNC4)cc3)nc12 (stereo unspecified) [Niraparib (MK-4827)]
Ans: 0.918

Q: Return cell viability for the following compound: CCCC1CC(C(=O)NC(C(C)O)C2OC(SC)C(O)C(O)C2O)N(C)C1.Cl (stereo unspecified) [Lincomycin HCl]
Ans: 0.958

Q: Return cell viability for the following compound: CN1C(C(=O)Nc2ccccn2)=C(O)c2sc(Cl)cc2S1(=O)=O [Lornoxicam]
Ans: 1.1

Q: Return cell viability for the following compound: COc1ccc2cc1Oc1ccc(cc1)CC1c3cc(c(OC)cc3CCN1C)Oc1c(OC)c(OC)cc3c1C(C2)N(C)CC3 (stereo unspecified) [Tetrandrine]
Ans: 1.3

Q: Return cell viability for the following compound: C=CC1CC1(NC(=O)C1CC(Oc2ncc(OC)c3ccc(Cl)cc23)CN1C(=O)C(NC(=O)OC(C)(C)C)C(C)(C)C)C(=O)NS(=O)(=O)C1CC1 (stereo unspecified) [Asunaprevir]
Ans: 1.05

Q: Return cell viability for the following compound: Nc1nc(=O)c2c([nH]1)NCC(CNc1ccc(C(=O)NC(CCC(=O)[O-])C(=O)[O-])cc1)N2C=O.O.O.O.O.O.[Ca+2] (stereo unspecified) [Leucovorin Calcium Pentahydrate]
Ans: 1.16
